Tested on: CP194
Assay: qHTS profiling for inhibitors of Plasmodium falciparum proliferation (AID 504749); also: nearly all actives have a fitted effect of over 60% in size
Settings: P. falciparum in erythrocytes, SYBR Green DNA, 72 h; series mostly up to 28.7 µM
Method: NIH National Institute of Allergy and Infectious Diseases [NIAID] NIH Chemical Genomics Center [NCGC] […] Because mature erythrocytes lack DNA, only Plasmodium-derived DNA is detected. NCGC Assay Protocol Summary: The SYBR Green viability assay was adapted from a method described previously (Plouffe et al., 2008). […] The following morning, fluorescence intensity at 485(14) nm excitation and 535(25) nm emission wavelengths was measured on an EnVision (Perkin Elmer) plate reader. […]
Records with an inconclusive call do not appear. Active and inactive are the calls of the source. Calls follow the shape of the dose curve; as a rule, active = well fitted inhibition curve with a large enough effect; inconclusive = small, poorly fitted or top-dose-only effect; inactive = flat fitted curve, though single readings scatter.
Classes used: active, inactive

[[record]]
molecule = "CCCC(=O)Nc1c(I)cc(I)c(C[C@H](CC)C(=O)O)c1I"
subject_of_test = "CP194"
class_name = "inactive"

[[record]]
molecule = "O=C(O)Cc1sc(-c2ccc(Cl)cc2)nc1-c1ccccc1"
subject_of_test = "CP194"
class_name = "inactive"

[[record]]
molecule = "C[C@@H]1C(SC2Cn3cnc[n+]3C2)=C(C(=O)[O-])N2C(=O)[C@H]([C@@H](C)O)[C@@H]12 (stereo partly specified)"
subject_of_test = "CP194"
class_name = "inactive"

[[record]]
molecule = "Nc1nc(F)nc2c1ncn2[C@@H]1O[C@H](CO)[C@@H](O)[C@H]1O"
subject_of_test = "CP194"
class_name = "inactive"

[[record]]
molecule = "C=C[C@@]1(C)C[C@H](OC(=O)CSC(C)(C)CNC(=O)[C@@H](N)C(C)C)[C@@]2(C)C(C)CC[C@@]3(CCC(=O)[C@@H]32)[C@H](C)[C@H]1O (stereo partly specified)"
subject_of_test = "CP194"
class_name = "active"

[[record]]
molecule = "Cc1cc2nc3c(=O)[nH]c(=O)nc-3n(CC(O)C(O)C(O)COP(=O)(O)O)c2cc1C (stereo unspecified)"
subject_of_test = "CP194"
class_name = "inactive"

[[record]]
molecule = "C[C@]12CC[C@@H]3c4ccc(O)cc4CC[C@H]3[C@@H]1C[C@H](O)C2O (stereo partly specified)"
subject_of_test = "CP194"
class_name = "inactive"

[[record]]
molecule = "Cc1ccc(Nc2ncccc2C(=O)O)cc1C"
subject_of_test = "CP194"
class_name = "inactive"

[[record]]
molecule = "C[C@H]1[C@@H](OC(=O)CCC(=O)O)OC2OC3(C)CC[C@H]4[C@H](C)CC[C@@H]1[C@@]24OO3 (stereo partly specified)"
subject_of_test = "CP194"
class_name = "active"

[[record]]
molecule = "Cc1c(C)c2c(c(C)c1O)CCC(C)(CCCC(C)CCCC(C)CCCC(C)C)O2 (stereo unspecified)"
subject_of_test = "CP194"
class_name = "inactive"

[[record]]
molecule = "NC(C(=O)O)c1ccc(O)cc1 (stereo unspecified)"
subject_of_test = "CP194"
class_name = "inactive"

[[record]]
molecule = "CCC(C(=O)O)C1OC(C(C)C(O)C(C)C(=O)C(CC)C2OC3(C=CC(O)C4(CCC(C)(C5CCC(O)(CC)C(C)O5)O4)O3)C(C)CC2C)C(C)CC1C (stereo unspecified)"
subject_of_test = "CP194"
class_name = "active"

[[record]]
molecule = "CO[C@H]1C[C@@H]2CC[C@@H](C)[C@@](O)(O2)C(=O)C(=O)N2CCCC[C@H]2C(=O)O[C@H]([C@H](C)C[C@@H]2CC[C@@H](O)[C@H](OC)C2)CC(=O)[C@H](C)/C=C(\\C)[C@@H](O)[C@@H](OC)C(=O)[C@H](C)C[C@H](C)/C=C/C=C/C=C/1C"
subject_of_test = "CP194"
class_name = "active"

[[record]]
molecule = "COc1ccc(S(=O)(=O)N2c3ccc(Cl)cc3[C@](O)(c3ccccc3Cl)[C@@H]2C(=O)N2CCC[C@H]2C(N)=O)cc1OC"
subject_of_test = "CP194"
class_name = "inactive"

[[record]]
molecule = "CC(C)(C)C(=O)OCC(=O)C1CCC2C3CCC4=CC(=O)CCC4(C)C3CCC12C (stereo unspecified)"
subject_of_test = "CP194"
class_name = "inactive"

[[record]]
molecule = "C[C@@H]1CC2C3CCC4=CC(=O)C=C[C@]4(C)[C@@]3(F)[C@@H](O)C[C@]2(C)[C@@]1(O)C(=O)COC(=O)c1cccc(S(=O)(=O)O)c1 (stereo partly specified)"
subject_of_test = "CP194"
class_name = "inactive"


----------
system: CP250; assay: qHTS profiling for inhibitors of Plasmodium falciparum proliferation (AID 504749); also: nearly all actives have a fitted effect of over 60% in size; conditions: P. falciparum in erythrocytes, SYBR Green DNA, 72 h; series mostly up to 28.7 µM
Inconclusive results are not listed. Active and inactive are the calls of the source. Calls come from the whole dose curve; as a rule, active = well fitted inhibition curve with a large enough effect; inconclusive = small, poorly fitted or top-dose-only effect; inactive = flat fitted curve, though single readings scatter.
Outcomes: active, inactive

[[record]]
compound = "CCC(=O)O[C@]1(C(=O)CCl)[C@@H](C)CC2C3C[C@H](F)C4=CC(=O)C=CC4(C)[C@@]3(F)C(O)CC21C (some centres undefined)"
subject_of_test = "CP250"
class_name = "active"

[[record]]
compound = "N#C/C(=C1/SCC(c2ccccc2Cl)S1)n1ccnc1 (centres undefined)"
subject_of_test = "CP250"
class_name = "inactive"

[[record]]
compound = "CC(=O)N[C@H]1[C@H](O[C@@H]2c3ccc(c(Cl)c3)Oc3cc4cc(c3O[C@@H]3O[C@H](CO)[C@@H](O)[C@H](O)C3C)Oc3ccc(cc3Cl)C[C@H]3NC(=O)[C@@H](N)c5ccc(O)c(c5)Oc5cc(O)cc(c5)[C@H](NC3=O)C(=O)N[C@H]4C(=O)N[C@H]3C(=O)N[C@@H]2C(=O)N[C@@H](C(=O)O)c2cc(O)cc(O[C@H]4O[C@H](CO)[C@@H](O)C(O)[C@@H]4O)c2-c2cc3ccc2O)O[C@H](CO)[C@@H](O)[C@@H]1O (some centres undefined)"
subject_of_test = "CP250"
class_name = "inactive"

[[record]]
compound = "C[n+]1c2cc(N)ccc2cc2ccc(N)cc21"
subject_of_test = "CP250"
class_name = "active"


----------
assay: S16 Schwann cell PMP22 intronic element firefly luciferase assay (AID 624032); conditions: S16 rat Schwann cells, PMP22 element FLuc, 24 h; series mostly up to 57.5 µM; also: nearly all actives have a fitted effect of over 30% in size
Records with an inconclusive call do not appear. The source made the active and inactive calls. The call rests on the fitted dose curve; in most records, active means well fitted inhibition curve with a large enough effect; inconclusive means small, poorly fitted or top-dose-only effect; inactive means no such curve, though single readings can be large or run the other way.
Classes used: active, inactive

[[record]]
compound = "Cc1onc(-c2c(F)cccc2Cl)c1C(=O)NC1C(=O)N2C1SC(C)(C)C2C(=O)O (stereo not drawn)"
class_name = "inactive"

[[record]]
compound = "O=C(OC[C@@H]1O[C@@](O)(COC(=O)c2cccnc2)[C@H](OC(=O)c2cccnc2)[C@H]1OC(=O)c1cccnc1)c1cccnc1"
class_name = "active"

[[record]]
compound = "O=c1ccn(C2OC(COP(=O)(O)OC3C(CO)OC(n4ccc(=O)[nH]c4=O)C3O)C(O)C2O)c(=O)[nH]1 (stereo not drawn)"
class_name = "inactive"

[[record]]
compound = "CN(C)CC[C@@](O)(c1ccccc1)c1ccccc1Cl"
class_name = "inactive"

[[record]]
compound = "C=C1/C(=C\\C=C2/CCC[C@]3(C)[C@@H]([C@H](C)/C=C/[C@@H](O)C4CC4)CC[C@@H]23)C[C@@H](O)C[C@@H]1O"
class_name = "active"

[[record]]
compound = "CO/N=C(/C(=O)N[C@@H]1C(=O)N2C(C(=O)O)=C(CSc3nc(C)c(CC(=O)O)s3)CS[C@H]12)c1csc(N)n1"
class_name = "inactive"

[[record]]
compound = "CNC1C(O)C(OC2C(NC(=O)C(O)CN)CC(N)C(OC3OC(CN)C(O)C(O)C3O)C2O)OCC1(C)O (stereo not drawn)"
class_name = "inactive"

[[record]]
compound = "CCN1CCN(C(=O)NC(C(=O)NC2C(=O)N3C(C(=O)O)=C(CSc4nnnn4C)CSC23)c2ccc(O)cc2)C(=O)C1=O (stereo not drawn)"
class_name = "inactive"


----------
test: AP1 Signaling Pathway (AID 357); details: ME-180 (cervical carcinoma) AP-1-bla reporter, EGF-induced, beta-lactamase ratio, 5 h; at 17.2 µM (top of the series) unless noted;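 also: ME-180 reporter cells stimulated with EGF at its EC50 level; % is scaled to controls: 0 for no effect and ±100 for the full control effect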
Inconclusive results are not listed. Active and inactive are the calls of the source. Calls come from the whole dose curve; as a rule, active = well fitted curve in either direction with a large enough effect (not every such curve was filed as active); inconclusive = small, poorly fitted or top-dose-only effect, or another doubt; inactive = flat fitted curve, though single readings scatter.
RECORDED ENDPOINT: activity change, negative = inhibition

[[record]]
molecule = "CCCc1cc(=O)oc2c(CN3CCCC3)c(O)c(Cl)cc12"
result = "-8.98% (inactive)"

[[record]]
molecule = "O=C(CN1C(=O)c2ccccc2S1(=O)=O)NCCSCc1ccco1"
result = "-8.94% (inactive)"

[[record]]
molecule = "Cc1cc(C)n(C(=O)CNC(=O)c2ccc3c(c2)OCCO3)n1"
result = "-0.109% (inactive)"

[[record]]
molecule = "CC/C(=N\\O)c1ccc(OC)c(OC)c1"
result = "4.83% (inactive)"

[[record]]
molecule = "O=C(NCc1cccnc1)c1ccc(=O)oc1"
result = "10.5% (inactive)"

[[record]]
molecule = "Cn1c(=O)n(Cc2ccccc2)c(=O)c2c1nc(NCC1CCCO1)n2Cc1ccccc1 (stereo unspecified)"
result = "-28.9% (inactive)"

[[record]]
molecule = "Cc1nc(NS(=O)(=O)c2ccccc2)sc1NC(=O)OCCN(C)C"
result = "-8.74% (inactive)"

[[record]]
molecule = "CN1CCc2c(sc3c2C(=O)NC(c2ccco2)N3)C1 (stereo unspecified)"
result = "-0.778% (inactive)"

[[record]]
molecule = "CCC(NC(=O)Nn1cnnc1)(C(F)(F)F)C(F)(F)F"
result = "21.2% (inactive)"

[[record]]
molecule = "COc1ccc(/C(O)=C2\\C(=O)C(=O)N(c3cc(C)on3)C2c2cccc(OC)c2OC)cc1C (stereo unspecified)"
result = "-5.37% (inactive)"

[[record]]
molecule = "OC[C@@H]1O[C@@H](n2cnc3c(NCCc4ccccc4)ncnc32)[C@@H](O)[C@H]1O"
result = "-4.22% [at 38 µM] (inactive)"

